system: SK-OV-3 ovarian; test: NCI tumour cell line growth inhibition, 48 h
quantityKind: TGI

Item CCOC(=O)Cn1sc2ncc([N+](=O)[O-])cc2c1=O was tested on SK-OV-3 ovarian; the reported TGI is 34.6 µM

Readout TGI for COC(=O)c1ccc2c(c1)n(Cc1ccc3ccccc3c1)c[n+]2Cc1ccc2ccccc2c1 , test system SK-OV-3 ovarian, was 13.4 µM

Entry COc1cc2c3c(n(CCCBr)c(=O)c2cc1OC)-c1ccc(NC(C)=O)cc1C3=O : TGI on SK-OV-3 ovarian = 10.6 µM

The observed TGI for CCCCC/C=C/C/C=C/CCCCCCCC1=NC(C)(C)CN1C(C)C when tested with SK-OV-3 ovarian stands at 12.6 µM

Summary: O=C(/C=C/c1ccccc1Cl)c1ccccc1Cl , SK-OV-3 ovarian, TGI = > 100 µM

Item COC1(OC)C2(Cl)CCC1(Cl)C(OC(C)=O)C2 (stereo not given) was tested on SK-OV-3 ovarian; the reported TGI is > 100 µM

// TGI (SK-OV-3 ovarian) for CCCN=C(NC(=O)c1ccc(Cl)cc1)SC = > 100 µM

Here CCOC(=O)C(=C(SC)SC)c1nn2c(=O)cc(C)nc2s1 was tested on SK-OV-3 ovarian, and its TGI came to > 100 µM

Response field TGI (SK-OV-3 ovarian) for item COc1cc(C2c3cc4c(cc3[C@@H](Nc3ccccc3)C3CO[C@@H](OC)[C@H]23)OCO4)cc(OC)c1O (stereo not given in full) : > 25 µM

Record for CCCCn1c(C)c(C(=O)OCC)c2cc(OCc3ccc(C(=O)Nn4c(C)ccc4C)cc3)c(Br)cc21 under target or system SK-OV-3 ovarian: TGI reported as > 100 µM
